# Test system: HIV-1 NL4-3
# METHOD_NOTES: MAGI assay, HIV-1 NL4-3
# Format: cell-based
# CONDITION_NOTES: MAGI cells, 48 h, mean of triplicate ± SD
READOUT_KIND: pEC50
Just the number, please; pEC50 means minus log10 of the concentration in mol/L.

Exercise: # query: pEC50 of entry Cc1cn([C@H]2C[C@H](N=[N+]=[N-])[C@@H](CO)O2)c(=O)[nH]c1=O [AZT, reference compound]
Solution: 7.68

----------
# METHOD_NOTES: Cytotoxicity by MTT method (MAGI cells)
# Type: cell-based
# CONDITION_NOTES: human, HeLa CD4/CCR5-LTR/β-gal cells (MAGI cells); MTT, mean of triplicate ± SD
READOUT_KIND: CC50 (µM)
Record the value in µM, omitting the unit from your answer.

Exercise: What does the data say about its CC50? Entry: Oc1cc(O)c2c(c1)O[C@@]1(c3ccc(O)c(O)c3)Oc3cc(O)c4c(c3[C@@H]2[C@H]1O)O[C@H](c1ccc(O)c(O)c1)[C@H](O)[C@H]4c1c(O)cc(O)c2c1O[C@H](c1ccc(O)c(O)c1)[C@H](O)C2
Solution: 96
